Target: PfENT1M389L (Plasmodium falciparum, UniProt Q8IDM6, M389L)
Construct: 10xHis (N)
Sequence (Q8IDM6 whole entry M389L): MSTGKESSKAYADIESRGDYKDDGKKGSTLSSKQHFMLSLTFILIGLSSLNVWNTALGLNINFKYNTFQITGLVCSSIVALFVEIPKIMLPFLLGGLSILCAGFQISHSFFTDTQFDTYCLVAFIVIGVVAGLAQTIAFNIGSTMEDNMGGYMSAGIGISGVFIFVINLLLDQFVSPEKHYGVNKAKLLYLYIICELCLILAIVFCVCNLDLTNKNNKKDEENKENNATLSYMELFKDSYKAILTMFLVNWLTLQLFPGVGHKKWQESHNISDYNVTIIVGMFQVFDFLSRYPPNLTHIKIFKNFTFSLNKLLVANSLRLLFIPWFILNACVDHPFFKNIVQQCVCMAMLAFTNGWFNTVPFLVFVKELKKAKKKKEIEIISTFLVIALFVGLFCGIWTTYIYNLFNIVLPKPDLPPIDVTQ
Assay: ITC binding to PfENT1M389L
Conditions: Kd (binding to PfENT1M389L), 25 °C, pH 6.0
reported.metric: Kd (nM)
Give the value in nM but do not write nM after it.

Problem: I'd like to know its Kd. The molecule in question is `O=C(NCCN1CCCCCC1=O)c1nc(-c2ccccc2)oc1C1CC1`
Result: 44.4

====

Molecular target: PfENT1 (Plasmodium falciparum)
Construct: 10xHis (N); made in house; host or cells: Sf9 insect cells (baculovirus)
Experiment: ITC binding to PfENT1
Conditions: Kd (binding affinity for PfENT1), 25 °C, 25 mM MES pH 6.0, 150 mM NaCl, 0.05% DDM
pKd: −log10 of the molar value.
reported.metric: pKd

Problem: I'd like to know its pKd. The compound in question is `Nc1nc2c(ncn2[C@@H]2O[C@H](CO)[C@@H](O)[C@H]2O)c(=O)[nH]1`
Result: ~3.75

====

Biological target: PbENT1 (Plasmodium berghei, UniProt A0A509AYF4)
Construct: 10xHis (N); made in house; host or cells: Sf9 insect cells (baculovirus)
Sequence (A0A509AYF4 whole entry): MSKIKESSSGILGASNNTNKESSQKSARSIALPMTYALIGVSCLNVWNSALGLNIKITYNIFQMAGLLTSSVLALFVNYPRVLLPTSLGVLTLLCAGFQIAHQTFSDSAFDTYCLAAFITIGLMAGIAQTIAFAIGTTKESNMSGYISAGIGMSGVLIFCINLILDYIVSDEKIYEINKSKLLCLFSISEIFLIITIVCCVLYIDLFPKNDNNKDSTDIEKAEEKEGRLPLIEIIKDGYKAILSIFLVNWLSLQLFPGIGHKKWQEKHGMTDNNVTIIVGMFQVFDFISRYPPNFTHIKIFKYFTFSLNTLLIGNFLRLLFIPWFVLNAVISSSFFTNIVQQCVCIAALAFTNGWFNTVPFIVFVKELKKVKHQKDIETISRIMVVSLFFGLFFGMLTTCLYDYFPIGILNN
Assay: ITC binding to PbENT1
Experimental: All the constructs were subcloned and inserted into a modified pFastBac with an N-terminal 10 × His tag. The baculovirus was generated in DH10Bac for recombinant protein expression. After 72 h of infection, Sf9 insect cells were harvested. […] […] binding to ENTs was measured at 25 °C via a MicroCal PEAQ-ITC. […]
reported.metric: binding affinity for PbENT1 (in words)

> print(dat)
                               smiles.input                               target.desc  measured.value
1  Cc1cn([C@H]2C[C@H](O)[C@@H](CO)O2)c(=O)[nH]c1=O  PbENT1 (Plasmodium berghei, UniProt A0A509AYF4)            weak

====

Molecular target: PfENT1 (Plasmodium falciparum, UniProt Q8IDM6)
Construct: 10xHis (N); made in house; host or cells: Sf9 insect cells (baculovirus)
Sequence (Q8IDM6 whole entry): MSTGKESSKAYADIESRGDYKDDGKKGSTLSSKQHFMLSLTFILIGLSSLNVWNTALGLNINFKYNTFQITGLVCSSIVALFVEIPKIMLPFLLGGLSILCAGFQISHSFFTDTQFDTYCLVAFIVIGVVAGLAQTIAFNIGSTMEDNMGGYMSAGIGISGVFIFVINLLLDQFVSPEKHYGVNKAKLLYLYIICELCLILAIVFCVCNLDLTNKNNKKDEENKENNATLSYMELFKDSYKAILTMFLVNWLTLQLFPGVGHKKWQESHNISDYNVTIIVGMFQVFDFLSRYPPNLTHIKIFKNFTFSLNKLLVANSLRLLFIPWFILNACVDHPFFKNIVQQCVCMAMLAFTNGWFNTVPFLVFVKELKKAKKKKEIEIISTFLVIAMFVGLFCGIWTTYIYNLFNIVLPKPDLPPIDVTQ
Experiment: ITC binding to PfENT1
Settings: 25 °C, 25 mM MES pH 6.0, 150 mM NaCl, 0.05% DDM, read-out: Kd (binding affinity for PfENT1)
reported.metric: pKd
pKd field: float, defined as -log10 of concentration (mol/L).

Problem: I'd like to know its pKd. The compound in question is `O=c1[nH]cnc2c1ncn2[C@@H]1O[C@H](CO)[C@@H](O)[C@H]1O`
Result: 4.11
